# subject of test: MOR (Homo sapiens)
# Sequence (P35372 whole entry): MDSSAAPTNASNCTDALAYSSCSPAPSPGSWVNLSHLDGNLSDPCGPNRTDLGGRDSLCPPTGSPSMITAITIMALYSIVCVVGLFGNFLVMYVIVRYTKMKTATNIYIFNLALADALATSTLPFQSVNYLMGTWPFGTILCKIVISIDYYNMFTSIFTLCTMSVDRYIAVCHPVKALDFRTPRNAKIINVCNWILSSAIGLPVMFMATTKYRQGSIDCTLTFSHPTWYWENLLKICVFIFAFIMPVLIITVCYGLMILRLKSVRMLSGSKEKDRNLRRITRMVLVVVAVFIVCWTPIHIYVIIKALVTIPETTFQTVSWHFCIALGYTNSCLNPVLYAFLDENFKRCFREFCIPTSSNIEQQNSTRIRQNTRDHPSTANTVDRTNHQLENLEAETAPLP
# assay: cell-based
# Design: expressed in transfected cells; host or cells: CHO-K1/MOR/Ga15 cells
# condition label: area under the [Ca2+]i fluorescence response curve, up to 90 s
What FLIPR Ca2+ AUC was measured for each of the following?
Numbers only.

Entry CCc1ccc(C(=O)NCC2c3ccccc3CCN2C)cc1 (stereo not shown) ; assay system MOR (Homo sapiens); FLIPR Ca2+ AUC recorded at 18367

Summary line: O=C(NCC1NCCc2ccccc21)N1CCCC1 (stereo not shown) , MOR (Homo sapiens), reported FLIPR Ca2+ AUC = 3480

Bench note, MOR (Homo sapiens): entry Cc1ccc(C(=O)NCC2NCCc3ccccc32)c(C)c1 (stereo not shown) , its FLIPR Ca2+ AUC = 13375

Value sought: FLIPR Ca2+ AUC, system MOR (Homo sapiens), item O=C(NCC1NCCc2ccccc21)C1CCC1 (stereo not shown) . Result: 3646

Bench note, MOR (Homo sapiens): entry O=C(NCC1c2ccccc2CCN1S(=O)(=O)c1ccc(Br)cc1F)C1CCCCC1 (stereo not shown) , its FLIPR Ca2+ AUC = 7271

Recorded FLIPR Ca2+ AUC for CC1CCCCC1C(=O)NCC1NCCc2ccccc21 (stereo not shown) on MOR (Homo sapiens) was 5627

Per the reported MOR (Homo sapiens) data, O=C(NCC1NCCc2ccccc21)C1CCCC1 (stereo not shown) has FLIPR Ca2+ AUC of 5768

Here O=C(NCC1c2ccccc2CCN1S(=O)(=O)c1ccc(Br)cc1Cl)C1CCCCC1 (stereo not shown) was tested on MOR (Homo sapiens), and its FLIPR Ca2+ AUC came to 7597

Take each entry in turn and give its FLIPR Ca2+ AUC.
1. Cc1cc(Br)ccc1S(=O)(=O)N1CCc2ccccc2C1CNC(=O)C1CCCCC1 (stereo not shown)
2. O=C(NCC1c2ccccc2CCN1S(=O)(=O)c1ccc(Cl)cc1)C1CCCCC1 (stereo not shown)

A:
1. 3757
2. 6144
